Source listed as ChEMBL document CHEMBL2406981.

# System: Escherichia coli
# methodSummary: Antimicrobial activity against Escherichia coli MTCC 724 at 50 ug/ml after 24 hrs by agar disc diffusion method
# Format: functional
# studyConditions: MTCC 724, 24 h, read-out: DIZ
Is zone of inhibition at 50 µg/mL at least 7 mm? Then True. If not, False.

1) Clc1ccc(C2=NN(c3ccccc3)C(c3noc(-c4ccc(Cl)cc4)n3)C2)cc1 (centres undefined)	True

Is it the case that COc1ccc(-c2nc(C3CC(c4ccc(Cl)cc4)=NN3c3ccccc3)no2)cc1OC (centres undefined) has zone of inhibition at 50 µg/mL reaching or exceeding 7 mm?
True

Is it the case that COc1ccccc1-c1nc(C2CC(c3ccc(Cl)cc3)=NN2c2ccccc2)no1 (centres undefined) has zone of inhibition at 50 µg/mL reaching or exceeding 7 mm?
False

Is it the case that N/C(=N\O)C1CC(c2ccc(Cl)cc2)=NN1c1ccccc1 (centres undefined) has zone of inhibition at 50 µg/mL reaching or exceeding 7 mm?
False

Is it the case that O=C(N[C@H](CO)[C@H](O)c1ccc([N+](=O)[O-])cc1)C(Cl)Cl [CHLORAMPHENICOL] has zone of inhibition at 50 µg/mL reaching or exceeding 7 mm?
True

Is it the case that COc1ccc(C2=NN(c3ccccc3)C(c3noc(-c4ccc(OC)c(OC)c4)n3)C2)cc1 (centres undefined) has zone of inhibition at 50 µg/mL reaching or exceeding 7 mm?
True

Is it the case that Oc1ccc(C2=NN(c3ccccc3)C(c3noc(-c4ccc(O)cc4)n3)C2)cc1 (centres undefined) has zone of inhibition at 50 µg/mL reaching or exceeding 7 mm?
True

Is it the case that Clc1ccc(C2=NN(c3ccccc3)C(c3noc(-c4ccccc4)n3)C2)cc1 (centres undefined) has zone of inhibition at 50 µg/mL reaching or exceeding 7 mm?
False

---

The reader will find reported zone of inhibition at 100 µg/mL values listed item by item below.
# Tested on: Bacillus cereus
# methodSummary: Antimicrobial activity against Bacillus cereus MTCC 8372 at 100 ug/ml after 24 hrs by agar disc diffusion method
# Assay type: functional
# studyConditions: MTCC 8372, 24 h, read-out: DIZ

1. c1ccc(-c2cc(-c3noc(-c4ccccc4)n3)n(-c3ccccc3)n2)cc1	8 mm

Suppose we examine the molecule N/C(=N\O)C1CC(c2ccc(Cl)cc2)=NN1c1ccccc1 (configuration not stated) ; what zone of inhibition at 100 µg/mL value has been reported?
8 mm

Suppose we examine the molecule N/C(=N\O)C1CC(c2ccc(O)cc2)=NN1c1ccccc1 (configuration not stated) ; what zone of inhibition at 100 µg/mL value has been reported?
3 mm

Suppose we examine the molecule Oc1ccc(C2=NN(c3ccccc3)C(c3noc(-c4ccc(Cl)cc4)n3)C2)cc1 (configuration not stated) ; what zone of inhibition at 100 µg/mL value has been reported?
10 mm

Suppose we examine the molecule COc1ccc(-c2nc(C3CC(c4ccc(O)cc4)=NN3c3ccccc3)no2)cc1OC (configuration not stated) ; what zone of inhibition at 100 µg/mL value has been reported?
16 mm

Suppose we examine the molecule N/C(=N\O)C1CC(c2ccccc2)=NN1c1ccccc1 (configuration not stated) ; what zone of inhibition at 100 µg/mL value has been reported?
3 mm

Suppose we examine the molecule c1ccc(C2=NN(c3ccccc3)C(c3noc(-c4ccccc4)n3)C2)cc1 (configuration not stated) ; what zone of inhibition at 100 µg/mL value has been reported?
8 mm
